Source listed as paper PMC5770433.

assay: Creaming stability (creaming index) of 30% fish oil-in-water emulsions; assay type: physicochemical; details: 30% fish oil-in-water emulsion, storage at 5 °C, 7 days
Parameter Measured: Creaming index (CI) (%)
Field: numeric (%). Do not append units.

1) CCCCCCCC(=O)OCC(O)COC(=O)C(CC(=O)O)OC(=O)/C=C/c1ccc(OC)c(OC)c1 (stereo not drawn): 15.1
2) CCCCCCCCCCCCCCCCCC(=O)OCC(O)COC(=O)C(CC(=O)O)OC(=O)/C=C/c1ccc(OC)c(OC)c1 (stereo not drawn): 37.2
3) CCCCCCCCCCCCCC(=O)OCC(O)COC(=O)C(CC(=O)O)OC(=O)/C=C/c1ccc(O)c(O)c1 (stereo not drawn) [C14a]: 0
4) CCCCCCCCCCCCCCCC(=O)OCC(O)COC(=O)C(CC(=O)O)OC(=O)/C=C/c1ccc(OC)c(OC)c1 (stereo not drawn): 0
5) CCCCCCCCCC(=O)OCC(O)COC(=O)C(CC(=O)O)OC(=O)/C=C/c1ccc(OC)c(OC)c1 (stereo not drawn): 10.35

Item CCCCCCCCCCCCCC(=O)OCC(O)COC(=O)C(CC(=O)O)OC(=O)/C=C/c1ccc(OC)c(OC)c1 (stereo not drawn) : provide Creaming index (CI) 0

Item CCCCCCCCCCCC(=O)OCC(O)COC(=O)C(CC(=O)O)OC(=O)/C=C/c1ccc(O)c(O)c1 (stereo not drawn) [C12a] : provide Creaming index (CI) 0

Item CCCCCCCCCCCCCCCC(=O)OCC(O)COC(=O)C(CC(=O)O)OC(=O)/C=C/c1ccc(O)c(O)c1 (stereo not drawn) [C16a] : provide Creaming index (CI) 0

Item CCCCCCCCCCCC(=O)OCC(O)COC(=O)C(CC(=O)O)OC(=O)/C=C/c1ccc(OC)c(OC)c1 (stereo not drawn) : provide Creaming index (CI) 0
